Target: T1, cynomolgus IL-17A (cynomolgus, UniProt Q16552 24-155 (human entry), limits assumed)
T1 chain: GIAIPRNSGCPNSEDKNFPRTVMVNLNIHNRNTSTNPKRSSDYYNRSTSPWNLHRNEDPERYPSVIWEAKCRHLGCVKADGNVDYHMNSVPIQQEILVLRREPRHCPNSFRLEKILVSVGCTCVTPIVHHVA
Experiment: cell-based or functional assay
propertyLabel: IL-8 production (NHDF), IC50 (nM)
Report the figure in nM without appending any unit label.

Example cases with answers are listed next.
Consider mAb4538 (antibody, human IgG1, lambda, V domains shown, Framework-engineered mAb; also called engineered form of MOR7706) VH: QVQLQQSGPGLVKPSQTLSLTCAISGDSVSSSSAAWGWIRQSPSRGLEWLGRISYRSKWYNDYAVSVKSRITINPDTSKNQFSLQLNSVTPEDTAVYYCAREVDSMYYSYFDIWGQGTLVTVSS VL: EIVLTQSPATLSLSPGERATLSCRASQNVWAFYLAWYQQKPGQAPRLLIYGASNRATGIPARFSGSGSGTDFTLTISSLEPEDFAVYYCQQYRSTLSLTFGQGTKVEIKG . Its measured IL-8 production (NHDF), IC50 is 1.75

# IL-8 production (NHDF), IC50 (binder: mAb6785 (antibody, human IgG1, lambda, V domains shown, Framework-engineered mAb; also called engineered form of MOR8302) VH: QVQLLESGGGLVQPGGSLRLSCAASGFTFSSYAMSWVRQAPGKGLEWVSTISLTSGFTYYADSVKGRFTISRDNSKNTLYLQMNSLRAEDTAVYYCARQLTLDVWGQGTLVTVSS VL: QSVLTQPPSVSVAPGQTARISCSGDNLGDKYANWYQQKPGQAPVLVIYDDIDRPSGIPERFSGSNSGNTATLTISGTQAEDEADYYCGSYDFFLGMIVFGGGTKLTVLG ) is 0.563

Others:
Reported IL-8 production (NHDF), IC50 for mAb4168 (antibody, human IgG1, lambda, V domains shown, Framework-engineered mAb; also called engineered form of MOR8103) VH: QVQLQQSGPGLVKPSQTLSLTCAISGDSVSSSSAAWGWIRQSPSRGLEWLGRISYRSKWYNDYAVSVKSRITINPDTSKNQFSLQLNSVTPEDTAVYYCAREVDSTYYSYFDIWGQGTLVTVSS VL: EIVLTQSPATLSLSPGERATLSCRASQNVWAFYLAWYQQKPGQAPRLLIYGASNRATGIPARFSGSGSGTDFTLTISSLEPEDFAVYYCTQYYSSPSLTFGQGTKVEIKG was 3.3

Input mAb624 (antibody, human IgG1, lambda, V domains shown, Framework-engineered mAb; also called engineered form of MOR7708) VH: QVQLVQSGAEVKKPGSSVKVSCKASGGTFSSYAISWVRQAPGQGLEWMGRIIPWFGWTSYAQKFQGRVTITADESTSTAYMELSSLRSEDTAVYYCARDSEYYFDHWGQGTLVTVSS VL: DIQMTQSPSSVSASVGDRVTITCRASQGISNWLNWYQQKPGKAPKLLIYAASSLQSGVPSRFSGSGSGTDFTLTISSLQPEDFATYYCQQYSDDPTFGQGTKVEIKG . Output IL-8 production (NHDF), IC50: 0.192

IL-8 production (NHDF), IC50 in this record for mAb7024 (antibody, human IgG1, lambda, V domains shown, Framework-engineered mAb; also called engineered form of MOR8104) VH: QVQLVQSGAEVKKPGSSVKVSCKASGGTFSSYAISWVRQAPGQGLEWMGSIIPWFGTTNYAQKFQGRVTITADESTSTAYMELSSLRSEDTAVYYCARDSEYYFDHWGQGTLVTVSS VL: DIQMTQSPSSVSASVGDRVTITCRASQGISNWLNWYQQKPGKAPKLLIYAASSLQSGVPSRFSGSGSGTDFTLTISSLQPEDFATYYCQQYSDDPTFGQGTKVEIKG : 2.98
